Below, each entry is listed with its recorded Kd.
Molecular target: T1, GFP-9S library array, motif 4 ND N98D;D124W (synthetic construct, N98D;D124W)
T1 chain: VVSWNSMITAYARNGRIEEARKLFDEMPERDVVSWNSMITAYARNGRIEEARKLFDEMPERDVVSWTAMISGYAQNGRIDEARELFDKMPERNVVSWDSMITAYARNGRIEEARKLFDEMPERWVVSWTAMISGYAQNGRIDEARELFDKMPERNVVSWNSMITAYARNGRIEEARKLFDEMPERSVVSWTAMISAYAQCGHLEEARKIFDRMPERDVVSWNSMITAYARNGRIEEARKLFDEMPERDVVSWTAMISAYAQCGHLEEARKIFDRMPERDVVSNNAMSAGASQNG
Experiment: high-throughput RNA pulldown from lysate on Ni-NTA beads; HRP: 50 mM Tris pH 8, 150 mM NaCl, 1 mM beta-mercaptoethanol, 50 ug/ml BSA, 3 ug/ml yeast RNA, 0.5% heparin; ITC and FP: Tris pH 8, 200 mM KCl, 5% glycerol; MST: 50 mM Tris pH 8, 200 mM NaCl, 1 mM DTT, BSA, heparin, 0.05% Tween 20
Conditions: tags: N-terminal His-eGFP; label: 5' Cy5
Just the number in nM, nothing appended.

>  <binder>
AUUACACGUGA (ssRNA) [Cy5-rpoA]

>  <u>
nM

>  <readout.number>
134

$$$$

Q) // query Kd value for entry AUUAGACGUGA (ssRNA) [Cy5-rpoA-G]
A) 178

// data source = paper PMC8809517
